# experimental.system: UDP-3-O-acyl-N-acetylglucosamine deacetylase (Pseudomonas aeruginosa (strain ATCC 15692 / PAO1 / 1C / PRS 101 / LMG12228), UniProt P47205)
# Sequence (P47205 whole entry): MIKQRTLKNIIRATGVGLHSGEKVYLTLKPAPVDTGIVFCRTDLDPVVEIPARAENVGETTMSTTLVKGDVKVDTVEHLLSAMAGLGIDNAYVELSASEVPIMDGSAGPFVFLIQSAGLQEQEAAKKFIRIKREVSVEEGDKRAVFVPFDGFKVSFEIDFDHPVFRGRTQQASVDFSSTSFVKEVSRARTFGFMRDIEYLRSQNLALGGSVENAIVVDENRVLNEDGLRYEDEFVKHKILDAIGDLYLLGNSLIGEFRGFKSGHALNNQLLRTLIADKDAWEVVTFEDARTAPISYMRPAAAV
# assay.summary: At the end of 1 hour, 5 ul of 1N HCl was added to stop the enzyme reaction; the plates were centrifuged, and then processed with the BioTrove Rapidfire HTMS Mass Spectrometry System.
property: IC50 (nM)
Give bare numbers, in nM.

Example entries and their recorded answers appear below.
{"columns": ["compound", "property", "recorded.number"],
 "data": [
  ["CC(C)CCCOc1ccc(CCC(C)(C(=O)NO)S(C)(=O)=O)cc1 (stereo not given)", "IC50", 3.22],
  ["CC(CCc1ccc(OCCCc2ccccc2)cc1)(C(=O)NO)S(C)(=O)=O (stereo not given)", "IC50", 10.2],
  ["CC(CCc1ccc(OCc2nc(-c3cccc(F)c3F)no2)cc1)(C(=O)NO)S(C)(=O)=O (stereo not given)", "IC50", 5.31]
]}

Look up IC50 for the entries below, preserving their order.
1. Cc1ccc(COc2ccc(CCC(C)(C(=O)NO)S(C)(=O)=O)cc2)cn1 (stereo not given)
2. CC(CCc1ccc(OCC2CC2)cc1)(C(=O)NO)S(C)(=O)=O (stereo not given)
3. Cc1ncccc1COc1ccc(CCC(C)(C(=O)NO)S(C)(=O)=O)cc1 (stereo not given)
4. CC(CCc1ccc(OC2CCCCC2)cc1)(C(=O)NO)S(C)(=O)=O (stereo not given)

Ans:
1: 5.96; 2: 10.5; 3: 5.59; 4: 0.753

Please give IC50 for each item listed below.
1. CCC(CC)COc1ccc(CCC(C)(C(=O)NO)S(C)(=O)=O)cc1 (stereo not given)
2. CC(CCc1ccc(OCc2nc(-c3cc(F)cc(F)c3)no2)cc1)(C(=O)NO)S(C)(=O)=O (stereo not given)
3. CC(CCc1ccc(OCCCC2CCCC2)cc1)(C(=O)NO)S(C)(=O)=O (stereo not given)

Ans:
1.29
5.81
2.55
